Where do these numbers come from? They come from PubChem BioAssay (NCATS).

Experiment: Cell Viability - LYMP2-015 (AID 971);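 also: cells exposed to compound for 24 h; nearly all actives have a fitted effect of over 55% in size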
Conditions: LYMP2-015 lymphoblastoid cell viability; series mostly up to 92.2 µM
Results filed as inconclusive are left out. The source made the active and inactive calls. Calls follow the shape of the dose curve; as a rule, active = well fitted cell-killing curve with a large enough effect; inconclusive = small, poorly fitted or top-dose-only effect; inactive = flat fitted curve, though single readings scatter.
value kind: outcome

| compound | result |
| --- | --- |
| O=C1OC(=O)c2c(Cl)c(Cl)c(Cl)c(Cl)c21 | inactive |
| CNc1ccc([N+](=O)[O-])cc1 | inactive |
| O=C(O)c1ccc(Cl)cc1Cl | inactive |
| O=C1NC(=O)c2cc([N+](=O)[O-])ccc21 | inactive |
| CCCCC(=O)N(C)C | inactive |
| Cc1ccc(Cl)cc1 | inactive |
| CCOCCO | inactive |
| CC(=O)CC(C)C | inactive |
| CCOc1cccc(N)c1 | inactive |
| CC(C)CO | inactive |
| CCN(Cc1ccccc1)c1ccccc1 | inactive |
| Cc1cccc2ccccc12 | inactive |
| CC(C)c1ccccc1 | inactive |
| Cc1ccc2nc(-c3ccc(N)cc3)sc2c1S(=O)(=O)O | inactive |
| CCOc1cc(OCC)c(C(C)=O)cc1OCC | inactive |
| CC(C=O)Cc1ccc(C(C)(C)C)cc1 (stereo not given) | inactive |
| CC(=O)C1(C)CC2=C(CCCC2(C)C)CC1C (stereo not given) | inactive |
| COC(=O)CCCC(=O)OC | inactive |
| Nc1ccc(F)cc1F | inactive |
| ClCCl | inactive |
| CC/C=C/C#N | inactive |
| Cc1cccc(C)c1[N+](=O)[O-] | inactive |
| O=c1[nH][nH]c(=O)c2cc([N+](=O)[O-])ccc12 | inactive |
| CC(=C/C=C/C(C)=C/C=C/C=C(C)/C=C/C=C(C)/C=C/C(=O)O)/C=C/C(=O)O | inactive |
| CC(=O)Nc1cccc(N)c1 | inactive |
| O=Cc1ccccc1Cl | inactive |
| CC(CCl)OC(C)CCl (stereo not given) | inactive |
| CC(C)C=O | inactive |
| C=C(C)C(=O)OCCCCCC | inactive |
| CCOC(=O)OCC | inactive |
| CCC(C)(C)C | inactive |
| COc1cccc2sc(N)nc12 | inactive |
| Cc1cccc(C)c1 | inactive |
| CCCCC(CC)COCC1CO1 (stereo not given) | inactive |
| FC(F)(F)c1cccc(Cl)c1 | inactive |
| CC/C=C1/OC(=O)c2ccccc21 | inactive |
| Cc1ccccc1C(=O)O | inactive |
| CC(=O)OCCC(C)C | inactive |
| CC(C)(O)CCC(C)(C)O | inactive |
| Cc1cc(C)cc(O)c1 | inactive |
| CC(C)=CCC/C(C)=C/C=O | inactive |
| CCC(C)(C)C(=O)O | inactive |
| CCNc1ccccc1 | inactive |
| CCc1ccccc1O | inactive |
| CC(=O)Nc1ccccc1C | inactive |
| COc1ccc(OC)cc1 | inactive |
| Cc1ccccc1C(N)=O | inactive |
| CCC=O | inactive |
| CCCCCCCCC/C=C/CC1CC(=O)OC1=O (stereo not given) | inactive |
| CC(=O)Nc1ccc(N)cc1 | inactive |
| CC(=O)c1cccc([N+](=O)[O-])c1 | inactive |
| Cc1cccc2cccnc12 | inactive |
| Cc1ccc(C)c(N)c1 | inactive |
| CCC(C)=O | inactive |
| O=[N+]([O-])c1ccc(NCCO)c(OCCO)c1 | inactive |
| CNC(=O)c1ccccc1 | inactive |
| CC(C)(c1cc(Br)c(OCC(Br)CBr)c(Br)c1)c1cc(Br)c(OCC(Br)CBr)c(Br)c1 (stereo not given) | inactive |
| C=CCCCCCC | inactive |
| O=C(O)CCSSCCC(=O)O | inactive |
| Cc1ccc([N+](=O)[O-])c(N)c1 | inactive |
